Test system: Setaria faberi (SETFA)
Assay: Post-emergence biological efficacy, glasshouse pot test
Format: in vivo
Conditions: 312 h, Rate 1,000 g/ha, post-emergence spray, evaluated after 13 days (100=total damage to plant; 0=no damage to plant), read-out: Percentage damage caused to weed species, post-emergence, SETFA
measured-attribute: pest or weed control at 1000 g/ha (%)
One number for each entry, in %.

# example entries with known answers
Query: Look up pest or weed control at 1000 g/ha: `COC(=O)c1nc(-c2ccc(Cl)s2)nc(NCc2ccco2)c1Cl`
Result: 0

Query: Look up pest or weed control at 1000 g/ha: `COC(=O)c1nc(C2CC2)nc(N(C)Cc2ccc(C)o2)c1Cl`
Result: 80

Query: Look up pest or weed control at 1000 g/ha: `COC(=O)c1nc(C2CC2)nc(N(Cc2ccccc2)C[Si](C)(C)C)c1Cl`
Result: 70

Query: Look up pest or weed control at 1000 g/ha: `COC(=O)c1nc(C2CC2)nc(N(C)Cc2ccc(OC)cc2)c1Cl`
Result: 80

Query: Look up pest or weed control at 1000 g/ha: `COC(=O)c1nc(C2CC2)nc(N(C)Cc2cc(OC)cc(OC)c2)c1Cl`
Result: 30

Query: Look up pest or weed control at 1000 g/ha: `CCN(Cc1ccc(F)cc1)c1nc(C2CC2)nc(C(=O)OC)c1Cl`
Result: 90

Query: Look up pest or weed control at 1000 g/ha: `COC(=O)c1nc(C2CC2)nc(N(C)Cc2ccc(Cl)cc2)c1Cl`
Result: 70

Query: Look up pest or weed control at 1000 g/ha: `COC(=O)c1nc(-c2ccc(C(F)(F)F)c(Cl)c2)nc(NCc2ccco2)c1Cl`
Result: 10

Need pest or weed control at 1000 g/ha for each of these molecules.
1. COC(=O)c1nc(-c2ccc(OC)c(Cl)c2)nc(NCc2ccco2)c1Cl
2. COc1c(Cl)ccc(-c2nc(NCc3ccco3)c(Cl)c(C(=O)O)n2)c1F
3. CCN(Cc1ccccc1)c1nc(C2CC2)nc(C(=O)OC)c1Cl
4. CC(C)OC(=O)c1nc(C2CC2)nc(NCc2ccco2)c1Cl
5. COC(=O)c1nc(C2CC2)nc(N(C)Cc2cccc(Cl)c2)c1Cl
6. COC(=O)c1nc(-c2ccc(Cl)c(OC)c2F)nc(NCc2ccc(C)o2)c1Cl
7. COC(=O)c1nc(-c2ccc(C)cc2)nc(NCc2ccco2)c1Cl

Result:
1: 0; 2: 90; 3: 90; 4: 100; 5: 40; 6: 90; 7: 0

Need pest or weed control at 1000 g/ha for each of these molecules.
1. COC(=O)c1nc(C2CC2)nc(N(C)CC(O)c2ccccc2)c1Cl (stereo not drawn)
2. COC(=O)c1nc(Cl)nc(NCc2ccco2)c1Cl

Result:
50
10

Query: Look up pest or weed control at 1000 g/ha: `COC(=O)c1nc(-c2ccc(F)c(F)c2F)nc(NCc2ccco2)c1Cl`
Result: 40

---

Tested on: Amaranthus retoflexus (AMARE)
Experiment: Pre-emergence biological efficacy, glasshouse pot test
Type: in vivo
Conditions: Amaranthus retroflexus, 312 h; pre-emergence, 1,000 g/ha, evaluated after 13 days (100=total damage; 0=no damage); read-out: Percentage damage AMARE
measured-attribute: pest or weed control at 1000 g/ha (%)
Numbers only, in %.

Query: Requested read-out pest or weed control at 1000 g/ha, target or system Amaranthus retoflexus (AMARE), entry `COC(=O)c1nc(C2CC2)nc(NCC2CC2)c1Cl`
Result: 90

Need pest or weed control at 1000 g/ha for each of these molecules.
1. COC(=O)c1nc(C2CC2)nc(NCc2ccc(F)cc2F)c1Cl
2. COC(=O)c1nc(C2CC2)nc(NCc2nc3ccccc3s2)c1Cl
3. COC(=O)c1nc(C2CC2)nc(NCCN2CCNC2=O)c1Cl

Result:
[40, 20, 60]

Need pest or weed control at 1000 g/ha for each of these molecules.
1. COC(=O)c1nc(C2CC2)nc(N[C@H](CO)CSCc2ccccc2)c1Cl [4-276 (R)]
2. COC(=O)c1nc(C2CC2)nc(NCc2ccccc2OC)c1Cl
3. COC(=O)c1nc(C2CC2)nc(NCc2ccsc2Br)c1Cl
4. COC(=O)c1nc(C2CC2)nc(NCc2ncc(C(F)(F)F)cc2Cl)c1Cl

Result:
[100, 90, 70, 90]

Query: Requested read-out pest or weed control at 1000 g/ha, target or system Amaranthus retoflexus (AMARE), entry `COC(=O)c1nc(C2CC2)nc(NC2(/C=C/c3ccc(Cl)cc3)CC2)c1Cl`
Result: 20
